Attribution: ChEMBL document CHEMBL1201862

# Test system: SK-MEL-2
# Test: NCI tumour cell line growth inhibition, 48 h
Activity calls are given as the source filed them. Rule as the data show it: active = GI50 up to about 1.1 µM and inactive = higher.
Recorded GI50 by entry

Q: Please give the measured GI50 for this compound: O=C(CC1(O)C(=O)Nc2ccccc21)c1ccc(O)cc1 (stereo unspecified)
Result: > 100 µM (inactive)

---

# System: NCI-H226
# Test: NCI tumour cell line growth inhibition, 48 h
Calls of active or inactive are those of the source. Cut-off read from the data, not from the text of the source: active = GI50 up to about 1.1 µM and inactive = higher.
Recorded GI50 by entry

CCCCC(C(=O)C(=O)Nc1ccccc1CC)C(=O)C(C)C (configuration not stated) | > 100 µM (inactive)
Cc1cc(-c2ccccc2)nc(Nc2cc3ccccc3[nH]2)n1 | > 100 µM (inactive)
COc1cc(/C=C2/SC(c3ccccc3)N(c3ccccc3)C2=O)cc(OC)c1OC (configuration not stated) | 80.4 µM (inactive)
CC1=CC(=O)/C(=C/n2c(=S)[nH]c3ccc([N+](=O)[O-])cc32)C(=O)O1 | > 100 µM (inactive)
C=Cc1ccccc1C1(O)C=CC(OC)(OC)C=C1 | 30.5 µM (inactive)

Q: Please give the measured GI50 for this compound: COc1cccc(NC(=O)CC(=O)NNCC(=O)Nc2nnc(-c3ccc(N(CCC#N)S(=O)(=O)c4ccccc4)cc3)s2)c1
Result: > 100 µM (inactive)

Q: What do you get for CCCCc1ccc(-n2sc3ncc([N+](=O)[O-])cc3c2=O)cc1 ?
Result: 12.8 µM (inactive)
